studyConditions: male, human, in vivo
measurementLabel: Tmax (h)
Report as a plain number; the unit h is understood.

Entry COc1ccc2c(c1)[C@]13CCCC[C@@H]1[C@H](C2)N(C)CC3 : reported Tmax = ?
2

###

Some molecules, each annotated with its measured AUC(0-t).
studyConditions: male, human, in vivo, AUClast, geometric mean, After FRG, healthy male subjects, plasma, after 2 weeks of fermented red ginseng
Report as a plain number; the unit ng·h/mL is understood.

Examples with answers:
Entry CCCCc1nc(Cl)c(CO)n1Cc1ccc(-c2ccccc2-c2nn[nH]n2)cc1 [Losartan, losartan] : reported AUC(0-t) = ?
542

Entry COc1ccc2[nH]c([S+]([O-])Cc3ncc(C)c(OC)c3C)nc2c1 (stereo not shown) [Omeprazole, omeprazole] : reported AUC(0-t) = ?
1260

Entry CCCCc1nc(Cl)c(C(=O)O)n1Cc1ccc(-c2ccccc2-c2nn[nH]n2)cc1 [EXP3174] : reported AUC(0-t) = ?
2500

Next:
Entry Cc1ncc2n1-c1ccc(Cl)cc1C(c1ccccc1F)=NC2 [Midazolam, midazolam] : reported AUC(0-t) = ?
119

###

Some compounds, each annotated with its measured half-life.
studyConditions: male, human, in vivo, t 1/2, geometric mean, Before FRG, healthy male subjects, plasma, before fermented red ginseng
Report as a plain number; the unit h is understood.

Examples with answers:
Entry Cn1c(=O)[nH]c2ncn(C)c2c1=O : reported half-life = ?
11.8

Entry COc1ccc2[nH]c([S+]([O-])Cc3ncc(C)c(OC)c3C)nc2c1 (stereo not drawn) : reported half-life = ?
1.19

Entry Cc1ncc2n1-c1ccc(Cl)cc1C(c1ccccc1F)=NC2 : reported half-life = ?
3.3

Entry CN1CC[C@@]23CCCC[C@@H]2[C@@H]1Cc1ccc(O)cc13 : reported half-life = ?
3.92

Entry Cn1c(=O)c2c(ncn2C)n(C)c1=O : reported half-life = ?
5.5

Kindly consider the entry below.
Entry CCCCc1nc(Cl)c(CO)n1Cc1ccc(-c2ccccc2-c2nn[nH]n2)cc1 : reported half-life = ?
1.86

###

studyConditions: male, human, in vivo, AUClast, geometric mean, Before FRG, healthy male subjects, plasma, before fermented red ginseng
measurementLabel: AUC(0-t) (ng·h/mL)
Report as a plain number; the unit ng·h/mL is understood.

Entry Cc1ncc2n1-c1ccc(Cl)cc1C(c1ccccc1F)=NC2 : reported AUC(0-t) = ?
103

Entry COc1ccc2c(c1)[C@]13CCCC[C@@H]1[C@H](C2)N(C)CC3 : reported AUC(0-t) = ?
18.9

Entry COc1ccc2[nH]c([S+]([O-])Cc3ncc(C)c(OC)c3C)nc2c1 (stereo not shown) : reported AUC(0-t) = ?
1350

Entry Cn1c(=O)c2c(ncn2C)n(C)c1=O : reported AUC(0-t) = ?
45500

###

studyConditions: healthy male subjects, plasma
measurementLabel: C max, geometric mean ratio, After FRG: Before FRG (90% CI)

Examples with answers:
Entry Cn1c(=O)c2c(ncn2C)n(C)c1=O [Caffeine, caffeine] : reported C max, geometric mean ratio, After FRG: Before FRG (90% CI) = ?
1.002 (0.857–1.171)

Entry COc1ccc2nc([S+]([O-])Cc3ncc(CO)c(OC)c3C)[nH]c2c1 (stereo not shown) [5‐hydroxyomeprazole] : reported C max, geometric mean ratio, After FRG: Before FRG (90% CI) = ?
0.945 (0.859–1.039)

Entry OCc1ncc2n1-c1ccc(Cl)cc1C(c1ccccc1F)=NC2 [1‐hydroxymidazolam] : reported C max, geometric mean ratio, After FRG: Before FRG (90% CI) = ?
0.750 (0.583–0.966)

Next:
Entry COc1ccc2c(c1)[C@]13CCCC[C@@H]1[C@H](C2)N(C)CC3 [Dextromethorphan, dextromethorphan] : reported C max, geometric mean ratio, After FRG: Before FRG (90% CI) = ?
0.849 (0.688–1.047)

Entry COc1ccc2[nH]c([S+]([O-])Cc3ncc(C)c(OC)c3C)nc2c1 (stereo not shown) [Omeprazole, omeprazole] : reported C max, geometric mean ratio, After FRG: Before FRG (90% CI) = ?
0.892 (0.747–1.066)

Entry Cc1ncc2n1-c1ccc(Cl)cc1C(c1ccccc1F)=NC2 [Midazolam, midazolam] : reported C max, geometric mean ratio, After FRG: Before FRG (90% CI) = ?
0.873 (0.732–1.041)

Entry CCCCc1nc(Cl)c(C(=O)O)n1Cc1ccc(-c2ccccc2-c2nn[nH]n2)cc1 [EXP3174] : reported C max, geometric mean ratio, After FRG: Before FRG (90% CI) = ?
0.832 (0.694–0.997)

Entry Cn1c(=O)[nH]c2ncn(C)c2c1=O [Paraxanthine, paraxanthine] : reported C max, geometric mean ratio, After FRG: Before FRG (90% CI) = ?
0.979 (0.906–1.057)

Entry CN1CC[C@@]23CCCC[C@@H]2[C@@H]1Cc1ccc(O)cc13 [Dextrorphan, dextrorphan] : reported C max, geometric mean ratio, After FRG: Before FRG (90% CI) = ?
1.024 (0.876–1.198)

Entry CCCCc1nc(Cl)c(CO)n1Cc1ccc(-c2ccccc2-c2nn[nH]n2)cc1 [Losartan, losartan] : reported C max, geometric mean ratio, After FRG: Before FRG (90% CI) = ?
0.974 (0.797–1.190)

###

studyConditions: male, human, in vivo, AUCinf, geometric mean, After FRG, healthy male subjects, plasma, after 2 weeks of fermented red ginseng
measurementLabel: AUC(0-inf) (ng·h/mL)
Report as a plain number; the unit ng·h/mL is understood.

Examples with answers:
Entry CN1CC[C@@]23CCCC[C@@H]2[C@@H]1Cc1ccc(O)cc13 : reported AUC(0-inf) = ?
66.1

Entry Cn1c(=O)[nH]c2ncn(C)c2c1=O : reported AUC(0-inf) = ?
53900

Entry COc1ccc2[nH]c([S+]([O-])Cc3ncc(C)c(OC)c3C)nc2c1 (centres unmarked) : reported AUC(0-inf) = ?
1280

Entry Cc1ncc2n1-c1ccc(Cl)cc1C(c1ccccc1F)=NC2 : reported AUC(0-inf) = ?
126

Entry CCCCc1nc(Cl)c(C(=O)O)n1Cc1ccc(-c2ccccc2-c2nn[nH]n2)cc1 : reported AUC(0-inf) = ?
2610

Next:
Entry COc1ccc2c(c1)[C@]13CCCC[C@@H]1[C@H](C2)N(C)CC3 : reported AUC(0-inf) = ?
43.5

Entry Cn1c(=O)c2c(ncn2C)n(C)c1=O : reported AUC(0-inf) = ?
57500

Entry CCCCc1nc(Cl)c(CO)n1Cc1ccc(-c2ccccc2-c2nn[nH]n2)cc1 : reported AUC(0-inf) = ?
549

###

studyConditions: male, human, in vivo, t 1/2, geometric mean, After FRG, healthy male subjects, plasma, after 2 weeks of fermented red ginseng
half-life of 3 h or higher: t. Under 3 h: f.

Use these answered entries as a reference point.
Threshold query (half-life >= 3 h) on Cn1c(=O)[nH]c2ncn(C)c2c1=O [Paraxanthine, paraxanthine]
t

Threshold query (half-life >= 3 h) on COc1ccc2[nH]c([S+]([O-])Cc3ncc(C)c(OC)c3C)nc2c1 (stereo not drawn) [Omeprazole, omeprazole]
f

Next:
Threshold query (half-life >= 3 h) on CN1CC[C@@]23CCCC[C@@H]2[C@@H]1Cc1ccc(O)cc13 [Dextrorphan, dextrorphan]
t

Threshold query (half-life >= 3 h) on Cn1c(=O)c2c(ncn2C)n(C)c1=O [Caffeine, caffeine]
t

Threshold query (half-life >= 3 h) on CCCCc1nc(Cl)c(CO)n1Cc1ccc(-c2ccccc2-c2nn[nH]n2)cc1 [Losartan, losartan]
f

###

Some compounds, each annotated with its measured AUC(0-t).
studyConditions: male, human, in vivo, AUClast, geometric mean, After FRG, healthy male subjects, plasma, after 2 weeks of fermented red ginseng

Examples with answers:
Entry Cn1c(=O)[nH]c2ncn(C)c2c1=O : reported AUC(0-t) = ?
24600 ng·h/mL

Entry COc1ccc2c(c1)[C@]13CCCC[C@@H]1[C@H](C2)N(C)CC3 : reported AUC(0-t) = ?
17.1 ng·h/mL

Entry Cn1c(=O)c2c(ncn2C)n(C)c1=O : reported AUC(0-t) = ?
51300 ng·h/mL

Kindly consider the entry below.
Entry CN1CC[C@@]23CCCC[C@@H]2[C@@H]1Cc1ccc(O)cc13 : reported AUC(0-t) = ?
60.3 ng·h/mL

###

studyConditions: male, human, in vivo, AUClast, geometric mean, Before FRG, healthy male subjects, plasma, before fermented red ginseng
measurementLabel: AUC(0-t) (ng·h/mL)
Report as a plain number; the unit ng·h/mL is understood.

Entry CCCCc1nc(Cl)c(C(=O)O)n1Cc1ccc(-c2ccccc2-c2nn[nH]n2)cc1 [EXP3174] : reported AUC(0-t) = ?
3080

Entry CN1CC[C@@]23CCCC[C@@H]2[C@@H]1Cc1ccc(O)cc13 [Dextrorphan, dextrorphan] : reported AUC(0-t) = ?
57.7

Entry Cn1c(=O)[nH]c2ncn(C)c2c1=O [Paraxanthine, paraxanthine] : reported AUC(0-t) = ?
24200

Kindly consider the entry below.
Entry CCCCc1nc(Cl)c(CO)n1Cc1ccc(-c2ccccc2-c2nn[nH]n2)cc1 [Losartan, losartan] : reported AUC(0-t) = ?
517
